// note: pIC50 values for Epithelial discoidin domain-containing receptor 1 (Homo sapiens, UniProt Q08345) were reported in different studies
pIC50: −log10 of the molar value.

chem_smiles	pIC50
O=C(Nc1cc(CN2CCC23COC3)cc(C(F)(F)F)c1)c1csc2c1CCN(C(=O)c1cnc3ccccn13)C2	> 7.60
CN1CCN(Cc2cc(C(=O)Nc3ccc4c(c3)N(C(=O)c3cnc5ccccn35)CC4)cc(C(F)(F)F)c2)CC1	7.30 to 7.60
Cc1ccc(-n2nc(C(C)(C)C)cc2NC(=O)c2csc3c2CCN(Cc2ccnc4[nH]ccc24)C3)cc1	7.10 to 7.30
O=C(Nc1cccc(C(F)(F)F)c1)c1csc2c1CCN(C(=O)c1cnn3cccnc13)C2	7.10 to 7.30
Cc1cn(-c2cc(NC(=O)c3csc4c3CCN(Cc3cncnc3)C4)cc(C(F)(F)F)c2)cn1	7.30 to 7.60

Go through the items and report each one's pIC50.
1. CN1CCN(Cc2ccc(NC(=O)c3ccc4c(c3)N(Cc3cnc5[nH]nc(N6CCOCC6)c5c3)CC4)cc2C(F)(F)F)CC1
2. CN(C)[C@@H]1CCN(Cc2cc(NC(=O)c3csc4c3CCN(Cc3cnc5[nH]ccc5c3)C4)cc(C(F)(F)F)c2)C1

Resp:
["> 7.60", "7.30 to 7.60"]

Can you give me pIC50 for all of these, one by one?
1. COc1ccc(NC(=O)c2csc3c2CCN(C(=O)c2cnc4ccccn24)C3)cc1C(F)(F)F
2. CN1CCN(Cc2cc(NC(=O)c3ccc4c(c3)N(Cc3cnc5[nH]ccc5c3)CC4)cc(C(F)(F)F)c2)CC1
3. CC(C)c1ccc(C(=O)Nc2ccccn2)cc1C#Cc1cnc2cc(C3=CCCCC3)cnn12
4. O=C(Nc1cccc(C(F)(F)F)c1)c1csc2c1CCN(C(=O)c1cnc3n1CCOC3)C2
5. CC(C)(C)c1cc(NC(=O)c2csc3c2CCN(C(=O)c2cnc4ccccn24)C3)on1
6. O=C(Nc1cccc(C(F)(F)F)c1)c1csc2c1CCN(Cc1cnn3cccnc13)C2

Resp:
["> 7.60", "> 7.60", "> 6.30", "> 7.60", "> 7.60", "> 7.60"]

###

Field pIC50: reported value for Epithelial discoidin domain-containing receptor 1 (Homo sapiens, UniProt Q08345); entries drawn from several documents.
pIC50: −log10 of the molar value.

compound	pIC50
CN(C)Cc1ccc(NC(=O)c2csc3c2CCN(Cc2cnc(N)nc2)C3)cc1C(F)(F)F	7.30 to 7.60
O=C(Nc1cccc(C(F)(F)F)c1)c1csc2c1CCN(C(=O)c1cnn3ccncc13)C2	> 7.60
COc1ccn2c(C(=O)N3CCc4c(C(=O)Nc5cncc(C(F)(F)F)c5)csc4C3)cnc2c1	7.10 to 7.30

Provide reported pIC50 for each item, in the same order as listed.
1. CC(F)(F)c1cncc(NC(=O)c2csc3c2CCN(C(=O)c2cnn4ccncc24)C3)c1
2. Cc1ccc(C(=O)Nc2ccccn2)cc1C#Cc1cnc2cc(C3CCCCC3)cnn12
3. CN(C)CCOc1cc(NC(=O)c2csc3c2CCN(C(=O)c2cnc4ccccn24)C3)cc(C(F)(F)F)c1
4. CC1Cc2c(C(=O)Nc3cccc(C(F)(F)F)c3)csc2CN1Cc1cnc2cnccn12 (single isomer, unassigned)
5. Cc1n[nH]c2ncc(CN3CCc4ccc(C(=O)Nc5cc(CN6CC[C@@H](N(C)C)C6)nc(C(F)(F)F)c5)cc43)cc12

Resp:
1. 7.10 to 7.30
2. > 6.30
3. 7.30 to 7.60
4. 7.10 to 7.30
5. > 7.60
